biological target: human plasma proteins; experiment: plasma protein binding, ultracentrifugation, LC-MS/MS
Starred links: 1 amine or outer side, 2 acyl side, 3 side chain; linkers in the order of their positions; H or OH if unused. Non-standard residues stand in square brackets, D forms with d. Groups on a side chain read outwards from the residue. No end group written: not given here. *: point of attachment. C18 diacid = O=C(O)CCCCCCCCCCCCCCCCC(=O)*; C17 diacid = O=C(O)CCCCCCCCCCCCCCCC(=O)*; γGlu = O=C(O)[C@H](CCC(=O)[*:2])N[*:1]; NMeY = CN[C@@H](Cc1ccc(O)cc1)C(=O)O; AEEA = NCCOCCOCC(=O)O; Aib = CC(C)(N)C(=O)O
Human PPB (FUplasma), fraction unbound in plasma (fraction unbound): recorded values
measured_property: Human PPB (FUplasma), fraction unbound in plasma (fraction unbound)

binder="[NMeY][Aib]EGTFISDYSIALDR[Aib]K([AEEA-AEEA-γGlu-γGlu-C18 diacid])Q[Aib]NFVNWLLAQSPSSGAPPPS-NH2 [Compound No. 293]" result="< 0.002"
binder="[NMeY][Aib]EGTFISDYSIALDR[Aib]AQ[Aib]K([AEEA-AEEA-γGlu-γGlu-C18 diacid])FVNWLLAQKG-OH [Compound No. 41]" result="< 0.002"
binder="[NMeY][Aib]EGTFISDYSI[Aib]LDR[Aib]AQ[Aib]K([AEEA-AEEA-γGlu-γGlu-C17 diacid])FVNWLLAQRPSSGAPPPS-NH2 [Compound No. 13]" result="< 0.002"
binder="[NMeY][Aib]EGTFISDYSI[Aib]LDR[Aib]AQ[Aib]NFVNWLLAQK([AEEA-AEEA-γGlu-γGlu-C17 diacid])PSSGAPPPS-NH2 [Compound No. 16]" result="< 0.0012"
